# SUBJECT_OF_TEST: PARP-1 FL (Homo sapiens, UniProt P09874)
# Sequence (P09874 whole entry): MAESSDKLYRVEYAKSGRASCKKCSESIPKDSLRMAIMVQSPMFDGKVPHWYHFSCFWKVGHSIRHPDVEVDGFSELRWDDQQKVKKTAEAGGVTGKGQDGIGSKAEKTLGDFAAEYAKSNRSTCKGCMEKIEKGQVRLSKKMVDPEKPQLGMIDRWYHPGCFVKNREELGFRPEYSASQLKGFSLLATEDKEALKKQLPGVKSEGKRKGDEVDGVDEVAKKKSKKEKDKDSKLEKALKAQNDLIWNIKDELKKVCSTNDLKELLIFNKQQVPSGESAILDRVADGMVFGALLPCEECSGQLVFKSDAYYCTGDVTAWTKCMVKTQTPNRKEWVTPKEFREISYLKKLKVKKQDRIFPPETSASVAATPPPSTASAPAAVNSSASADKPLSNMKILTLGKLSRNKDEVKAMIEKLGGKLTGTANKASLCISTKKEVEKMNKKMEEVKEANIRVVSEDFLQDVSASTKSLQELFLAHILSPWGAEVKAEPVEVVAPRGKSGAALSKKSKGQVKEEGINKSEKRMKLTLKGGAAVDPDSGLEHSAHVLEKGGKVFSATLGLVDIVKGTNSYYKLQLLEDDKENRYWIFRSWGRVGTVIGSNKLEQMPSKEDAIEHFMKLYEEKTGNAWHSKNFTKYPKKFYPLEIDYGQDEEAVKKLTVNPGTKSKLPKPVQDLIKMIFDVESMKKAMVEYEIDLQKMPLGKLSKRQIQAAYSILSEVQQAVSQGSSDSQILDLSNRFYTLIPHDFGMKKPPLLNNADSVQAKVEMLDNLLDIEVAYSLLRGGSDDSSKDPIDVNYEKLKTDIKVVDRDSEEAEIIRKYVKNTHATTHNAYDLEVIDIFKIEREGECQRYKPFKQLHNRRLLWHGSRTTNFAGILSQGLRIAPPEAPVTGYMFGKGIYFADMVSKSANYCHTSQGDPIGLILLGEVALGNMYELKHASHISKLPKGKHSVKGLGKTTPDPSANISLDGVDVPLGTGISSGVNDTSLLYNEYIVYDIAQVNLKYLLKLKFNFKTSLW
# PROTOCOL: Fluorescence polarization probe displacement assay
# Assay type: binding
# EXPERIMENTAL_CONTEXT: half maximal displacement concentration
Counter-ions that a name gives are not always drawn.
Readings of DC50 for the listed compounds
PARAMETER_MEASURED: DC50

compound=O=c1[nH]c(-c2cccc(Cl)c2)c(OCCCN2CCCCC2)c2ccccc12 parameter_measured=DC50 endpoint_value="< 0.25 µM"
compound=CC(=O)NCCCOc1c(-c2ccccc2)[nH]c(=O)c2ccccc12 parameter_measured=DC50 endpoint_value="0.31 µM"
compound="Cc1cccc2c(=O)[nH]c(-c3ccccc3)c(OCCN)c12 [Compound 49, hydrochloride]" parameter_measured=DC50 endpoint_value="< 0.25 µM"
compound=O=c1[nH]c(-c2ccc(O)cc2)c(OCCCN2CCCCC2)c2ccccc12 parameter_measured=DC50 endpoint_value="< 0.25 µM"
compound=CNCCOc1c(-c2ccccc2)[nH]c(=O)c2ccccc12 parameter_measured=DC50 endpoint_value="< 0.25 µM"
compound="COc1ccc(-c2[nH]c(=O)c3cc(F)ccc3c2OCCN)cc1.Cl [Compound 25, hydrochloride]" parameter_measured=DC50 endpoint_value="< 0.25 µM"
compound="O=c1[nH]c(-c2ccccc2)c(OC2CCNCC2)c2ccc(F)cc12 [Compound 85, hydrochloride]" parameter_measured=DC50 endpoint_value="0.38 µM"
compound=CN(C)CCOc1c(-c2ccccc2)[nH]c(=O)c2ccccc12 parameter_measured=DC50 endpoint_value="< 0.25 µM"
compound=COc1cccc(-c2[nH]c(=O)c3ccccc3c2OCCCN2CCCCC2)c1 parameter_measured=DC50 endpoint_value="0.35 µM"
compound="NCCOc1c(-c2ccsc2)[nH]c(=O)c2ccccc12 [Compound 29, hydrochloride]" parameter_measured=DC50 endpoint_value="< 0.25 µM"
compound=O=c1[nH]c(-c2ccccc2)c(OCCCN2CCCC2)c2ccccc12 parameter_measured=DC50 endpoint_value="< 0.25 µM"
compound=CC(=O)N1CCN(CCOc2c(-c3ccccc3)[nH]c(=O)c3ccccc23)CC1 parameter_measured=DC50 endpoint_value="< 0.25 µM"
compound=NCCOc1c(-c2cccc(O)c2)[nH]c(=O)c2cc(F)ccc12 parameter_measured=DC50 endpoint_value="< 0.25 µM"
compound=O=C(NCCCOc1c(-c2ccccc2)[nH]c(=O)c2ccccc12)c1ccccc1 parameter_measured=DC50 endpoint_value="0.82 µM"
compound="Cl.NCCOc1c(-c2cccc(Cl)c2)[nH]c(=O)c2ccccc12 [Compound 48, hydrochloride]" parameter_measured=DC50 endpoint_value="< 0.25 µM"
compound="O=c1[nH]c(-c2cccc(O)c2)c(OCCCN2CCCCC2)c2ccc(F)cc12 [Compound 45, hydrochloride]" parameter_measured=DC50 endpoint_value="< 0.25 µM"
compound="NCCOc1c(-c2cccc(O)c2)[nH]c(=O)c2ccccc12 [Compound 32, hydrochloride]" parameter_measured=DC50 endpoint_value="< 0.25 µM"

----------
# SUBJECT_OF_TEST: PARP-3 FL (Homo sapiens, UniProt Q9Y6F1)
# Sequence (Q9Y6F1 whole entry): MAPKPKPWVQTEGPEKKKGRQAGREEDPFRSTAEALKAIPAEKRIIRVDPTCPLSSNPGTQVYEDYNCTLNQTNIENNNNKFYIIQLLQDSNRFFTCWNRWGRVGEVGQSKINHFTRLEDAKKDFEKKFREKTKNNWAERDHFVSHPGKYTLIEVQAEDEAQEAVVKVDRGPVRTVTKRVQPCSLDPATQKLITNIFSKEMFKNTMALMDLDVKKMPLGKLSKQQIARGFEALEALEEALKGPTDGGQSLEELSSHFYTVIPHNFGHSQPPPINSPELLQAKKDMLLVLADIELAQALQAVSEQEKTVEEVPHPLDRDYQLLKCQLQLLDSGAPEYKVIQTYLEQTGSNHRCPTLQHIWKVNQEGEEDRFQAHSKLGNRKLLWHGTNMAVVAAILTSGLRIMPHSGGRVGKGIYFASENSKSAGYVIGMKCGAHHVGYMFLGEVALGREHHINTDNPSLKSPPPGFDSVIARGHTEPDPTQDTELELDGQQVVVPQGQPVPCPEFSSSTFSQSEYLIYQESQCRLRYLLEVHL
# PROTOCOL: Fluorescence polarization probe displacement assay
# Format: binding
# EXPERIMENTAL_CONTEXT: compound P1 as the probe
Counter-ions that a name gives are not always drawn.
Readings of log10 DC50 for the listed molecules
PARAMETER_MEASURED: log10 DC50 (log10 of the value in µM)

molecule="O=c1[nH]c(-c2ccccc2)c(OC2CCNCC2)c2ccc(F)cc12 [Compound 85, hydrochloride]" endpoint_value=-0.27
molecule="COc1cccc(-c2[nH]c(=O)c3cc(F)ccc3c2OCCCN2CCCCC2)c1 [Compound 43, hydrochloride]" endpoint_value=0.40
molecule="NCCOc1c(-c2ccsc2)[nH]c(=O)c2ccccc12 [Compound 29, hydrochloride]" endpoint_value=-0.70
molecule="NCCOc1c(-c2ccc(O)cc2)[nH]c(=O)c2cc(F)ccc12 [Compound 28, hydrobromide]" endpoint_value=-0.33
molecule="COc1cccc(-c2[nH]c(=O)c3cc(F)ccc3c2OCCN)c1 [Compound 46, hydrochloride]" endpoint_value=-0.43
molecule="Cl.NCCOc1c(-c2cccc(Cl)c2)[nH]c(=O)c2ccccc12 [Compound 48, hydrochloride]" endpoint_value=-0.48
molecule="NCCCOc1c(-c2ccccc2)[nH]c(=O)c2cc(F)ccc12 [Compound 86, hydrochloride]" endpoint_value=-0.48
molecule=CN(C)CCOc1c(-c2ccccc2)[nH]c(=O)c2cc(F)ccc12 endpoint_value=0.05

----------
# PROTOCOL: Pharmacokinetics and oral bioavailability in the mouse
# Type: in vivo
# EXPERIMENTAL_CONTEXT: 10 mg/kg, ratio of oral to IV dose-normalized plasma AUC
Readings of F on AUC for the listed compounds
PARAMETER_MEASURED: F on AUC (%)

compound="Cl.NCCOc1c(-c2ccccc2)[nH]c(=O)c2cc(F)ccc12 [Compound 39]" endpoint_value=72
compound="COc1cccc(-c2[nH]c(=O)c3ccccc3c2OCCN)c1.Cl [Compound 11]" endpoint_value=64
compound="CNCCCOc1c(-c2ccccc2)[nH]c(=O)c2ccccc12.Cl [Compound 12]" endpoint_value=17
compound="COc1ccc(-c2[nH]c(=O)c3cc(F)ccc3c2OCCN)cc1.Cl [Compound 25]" endpoint_value=71
compound="O=c1[nH]c(-c2cccc(O)c2)c(OCCCN2CCCCC2)c2ccccc12 [Compound 33]" endpoint_value=24
compound="Cl.NCCOc1c(-c2cccc(Cl)c2)[nH]c(=O)c2ccccc12 [Compound 48]" endpoint_value=27
compound="COc1ccc(-c2[nH]c(=O)c3ccccc3c2OCCN)cc1.Cl [Compound 24]" endpoint_value=50

----------
Readings of DC50 for the listed compounds
# SUBJECT_OF_TEST: PARP-2 FL (Homo sapiens)
# Sequence (Q9UGN5 whole entry): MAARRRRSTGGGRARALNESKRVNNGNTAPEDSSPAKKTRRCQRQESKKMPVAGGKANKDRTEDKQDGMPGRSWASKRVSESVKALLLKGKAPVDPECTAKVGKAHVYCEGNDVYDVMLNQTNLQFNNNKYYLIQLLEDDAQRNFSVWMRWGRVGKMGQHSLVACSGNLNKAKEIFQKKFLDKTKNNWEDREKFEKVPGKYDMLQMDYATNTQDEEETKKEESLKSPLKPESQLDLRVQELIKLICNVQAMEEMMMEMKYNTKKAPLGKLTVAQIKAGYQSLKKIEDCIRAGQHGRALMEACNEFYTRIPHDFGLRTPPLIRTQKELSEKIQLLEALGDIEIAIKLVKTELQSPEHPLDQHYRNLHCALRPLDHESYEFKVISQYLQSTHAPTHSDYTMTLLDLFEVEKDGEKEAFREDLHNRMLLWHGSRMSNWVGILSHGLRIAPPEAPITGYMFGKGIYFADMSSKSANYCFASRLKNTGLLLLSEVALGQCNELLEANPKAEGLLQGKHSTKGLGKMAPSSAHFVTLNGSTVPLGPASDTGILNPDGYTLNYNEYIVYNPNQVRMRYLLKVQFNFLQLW
# PROTOCOL: Fluorescence polarization probe displacement assay
# Assay type: binding
# EXPERIMENTAL_CONTEXT: compound P1 as the probe
Structures can show the parent of a compound that is named as a salt.
PARAMETER_MEASURED: DC50 (µM)

compound=O=c1[nH]c(-c2cccc(Cl)c2)c(OCCCN2CCCCC2)c2ccccc12 subject_of_test="PARP-2 FL (Homo sapiens)" unit_of_measure=µM value_prefix== endpoint_value=0.7
compound="O=c1[nH]c(-c2ccccc2)c(OCCCN2CCCCC2)c2ccccc12 [Compound 5, trifluoroacetate]" subject_of_test="PARP-2 FL (Homo sapiens)" unit_of_measure=µM value_prefix== endpoint_value=4.34
compound="Cl.NCCOc1c(-c2cccc(Cl)c2)[nH]c(=O)c2ccccc12 [Compound 48, hydrochloride]" subject_of_test="PARP-2 FL (Homo sapiens)" unit_of_measure=µM value_prefix== endpoint_value=1.16
compound=CC(=O)N1CCN(CCOc2c(-c3ccccc3)[nH]c(=O)c3ccccc23)CC1 subject_of_test="PARP-2 FL (Homo sapiens)" unit_of_measure=µM value_prefix=> endpoint_value=10
compound="COc1cccc(-c2[nH]c(=O)c3cc(F)ccc3c2OCCN)c1 [Compound 46, hydrochloride]" subject_of_test="PARP-2 FL (Homo sapiens)" unit_of_measure=µM value_prefix== endpoint_value=5.99
compound="CN1CCN(CCCOc2c(-c3ccccc3)[nH]c(=O)c3ccccc23)CC1 [Compound 20, di hydrochloride]" subject_of_test="PARP-2 FL (Homo sapiens)" unit_of_measure=µM value_prefix== endpoint_value=5.52
compound="NCCCOc1c(-c2ccccc2)[nH]c(=O)c2cc(F)ccc12 [Compound 86, hydrochloride]" subject_of_test="PARP-2 FL (Homo sapiens)" unit_of_measure=µM value_prefix== endpoint_value=4.72
compound="O=c1[nH]c(-c2ccccc2)c(OC2CCNCC2)c2ccc(F)cc12 [Compound 85, hydrochloride]" subject_of_test="PARP-2 FL (Homo sapiens)" unit_of_measure=µM value_prefix== endpoint_value=4.35

----------
# SUBJECT_OF_TEST: UniProt:Q9UGN5
# PROTOCOL: Fluorescence polarization probe displacement assay
# Format: binding
Structures can show the parent of a compound that is named as a salt.
PARAMETER_MEASURED: Kd (µM)

compound="CNCCCOc1c(-c2ccccc2)[nH]c(=O)c2ccccc12.Cl [Compound 12, hydrochloride]" subject_of_test=UniProt:Q9UGN5 value_prefix== endpoint_value=1.65
compound="COc1ccc(-c2[nH]c(=O)c3cc(F)ccc3c2OCCN)cc1.Cl [Compound 25, hydrochloride]" subject_of_test=UniProt:Q9UGN5 value_prefix== endpoint_value=0.61
compound=O=c1[nH]c(-c2cccc(Cl)c2)c(OCCCN2CCCCC2)c2ccccc12 subject_of_test=UniProt:Q9UGN5 value_prefix== endpoint_value=0.4
compound="Cl.NCCOc1c(-c2ccccc2)[nH]c(=O)c2cc(F)ccc12 [Compound 39, hydrochloride]" subject_of_test=UniProt:Q9UGN5 value_prefix== endpoint_value=4.38
compound="CCN(CC)CCCOc1c(-c2ccccc2)[nH]c(=O)c2ccccc12 [Compound 18, hydrochloride]" subject_of_test=UniProt:Q9UGN5 value_prefix== endpoint_value=8.65
compound="COc1cccc(-c2[nH]c(=O)c3cc(F)ccc3c2OCCN)c1 [Compound 46, hydrochloride]" subject_of_test=UniProt:Q9UGN5 value_prefix== endpoint_value=3.61
compound="NCCOc1c(-c2cccc(O)c2)[nH]c(=O)c2ccccc12 [Compound 32, hydrochloride]" subject_of_test=UniProt:Q9UGN5 value_prefix== endpoint_value=0.45
compound="O=c1[nH]c(-c2cccc(O)c2)c(OCCCN2CCCCC2)c2ccc(F)cc12 [Compound 45, hydrochloride]" subject_of_test=UniProt:Q9UGN5 value_prefix== endpoint_value=0.12
compound="CN1CCN(CCCOc2c(-c3ccccc3)[nH]c(=O)c3ccccc23)CC1 [Compound 20, di hydrochloride]" subject_of_test=UniProt:Q9UGN5 value_prefix== endpoint_value=5.35
compound=CC(=O)N1CCN(CCOc2c(-c3ccccc3)[nH]c(=O)c3ccccc23)CC1 subject_of_test=UniProt:Q9UGN5 value_prefix=> endpoint_value=10
compound=COc1cccc(-c2[nH]c(=O)c3ccccc3c2OCCCN2CCCCC2)c1 subject_of_test=UniProt:Q9UGN5 value_prefix== endpoint_value=4.39
compound="O=c1[nH]c(-c2ccccc2)c(OCCN2CCNCC2)c2ccccc12 [Compound 6, di-hydrochloride]" subject_of_test=UniProt:Q9UGN5 value_prefix=> endpoint_value=10
compound=O=c1[nH]c(-c2ccc(O)cc2)c(OCCCN2CCCCC2)c2ccccc12 subject_of_test=UniProt:Q9UGN5 value_prefix== endpoint_value=0.33
compound=NCCOc1c(-c2ccc(O)cc2)[nH]c(=O)c2ccccc12 subject_of_test=UniProt:Q9UGN5 value_prefix== endpoint_value=0.33
compound="COc1cccc(-c2[nH]c(=O)c3cc(F)ccc3c2OCCCN2CCCCC2)c1 [Compound 43, hydrochloride]" subject_of_test=UniProt:Q9UGN5 value_prefix== endpoint_value=2.02
compound=CC(=O)NCCOc1c(-c2ccccc2)[nH]c(=O)c2ccccc12 subject_of_test=UniProt:Q9UGN5 value_prefix== endpoint_value=6.28
compound=CC(=O)NCCCOc1c(-c2ccccc2)[nH]c(=O)c2ccccc12 subject_of_test=UniProt:Q9UGN5 value_prefix== endpoint_value=0.95
compound="Cl.NCCOc1c(-c2cccc(Cl)c2)[nH]c(=O)c2ccccc12 [Compound 48, hydrochloride]" subject_of_test=UniProt:Q9UGN5 value_prefix== endpoint_value=0.51
compound="NCCCCOc1c(-c2ccccc2)[nH]c(=O)c2ccccc12 [Compound 22, hydrochloride]" subject_of_test=UniProt:Q9UGN5 value_prefix== endpoint_value=1.34
compound=O=c1[nH]c(-c2ccccc2)c(OCCCN2CCCC2)c2ccccc12 subject_of_test=UniProt:Q9UGN5 value_prefix== endpoint_value=1.36
compound=O=c1[nH]c(-c2cccc(O)c2)c(OCCCN2CCCCC2)c2ccccc12 subject_of_test=UniProt:Q9UGN5 value_prefix== endpoint_value=0.25
compound=CN(C)CCOc1c(-c2ccccc2)[nH]c(=O)c2ccccc12 subject_of_test=UniProt:Q9UGN5 value_prefix== endpoint_value=1.01
compound="NCCOc1c(-c2ccccc2)[nH]c(=O)c2ccccc12 [Compound 1, hydrochloride]" subject_of_test=UniProt:Q9UGN5 value_prefix== endpoint_value=3.07
compound="O=c1[nH]c(-c2ccccc2)c(OCCCN2CCCCC2)c2ccccc12 [Compound 5, trifluoroacetate]" subject_of_test=UniProt:Q9UGN5 value_prefix== endpoint_value=4.59
compound="CN1CCN(CCOc2c(-c3ccccc3)[nH]c(=O)c3ccccc23)CC1 [Compound 19, di hydrochloride]" subject_of_test=UniProt:Q9UGN5 value_prefix== endpoint_value=7.29
compound=CNCCOc1c(-c2ccccc2)[nH]c(=O)c2ccccc12 subject_of_test=UniProt:Q9UGN5 value_prefix== endpoint_value=2.44
compound="O=c1[nH]c(-c2ccccc2)c(OCCCN2CCNCC2)c2ccccc12 [Compound 14, di-hydrochloride]" subject_of_test=UniProt:Q9UGN5 value_prefix== endpoint_value=6.13
compound="NCCCOc1c(-c2ccccc2)[nH]c(=O)c2ccccc12 [Compound 3, hydrochloride]" subject_of_test=UniProt:Q9UGN5 value_prefix== endpoint_value=3.92
